Tested on: HCT-116
methodSummary: MTT cytotoxicity, HCT-116
Type: cell-based
testConditions: Homo sapiens, HCT-116, read-out: Cytotoxic activity IC50, HCT-116
Each item that follows carries a reported pIC50.
Please report pIC50 as the negative decimal logarithm of the molar concentration, giving only the number.

I am curious: what pIC50 value has been reported for C#Cc1cccc(Nc2ncnc3cc(OCCOC)c(OCCOC)cc23)c1 [Erlotinib, erlotinib, reference compound] ?
4.75

I am curious: what pIC50 value has been reported for CC(=NNC(=O)COc1ccc2c(C)c(Cc3ccccc3)c(=O)oc2c1C)c1ccc(Br)cc1 ?
4.70

====

Tested on: PC-3
methodSummary: MTT cytotoxicity, PC-3
Type: cell-based, human
testConditions: read-out: Cytotoxic activity IC50, PC-3; MTT; mean ± SD of three experiments
observationType: pIC50
Please report pIC50 as the negative decimal logarithm of the molar concentration, giving only the number.

I am curious: what pIC50 value has been reported for Cc1c(Cc2ccccc2)c(=O)oc2c(C)c(OCC(=O)NN=Cc3ccc([N+](=O)[O-])cc3)ccc12 ?
4.64

====

testedOn: PI3Kγ (Homo sapiens)
Sequence (P48736 whole entry, canonical isoform): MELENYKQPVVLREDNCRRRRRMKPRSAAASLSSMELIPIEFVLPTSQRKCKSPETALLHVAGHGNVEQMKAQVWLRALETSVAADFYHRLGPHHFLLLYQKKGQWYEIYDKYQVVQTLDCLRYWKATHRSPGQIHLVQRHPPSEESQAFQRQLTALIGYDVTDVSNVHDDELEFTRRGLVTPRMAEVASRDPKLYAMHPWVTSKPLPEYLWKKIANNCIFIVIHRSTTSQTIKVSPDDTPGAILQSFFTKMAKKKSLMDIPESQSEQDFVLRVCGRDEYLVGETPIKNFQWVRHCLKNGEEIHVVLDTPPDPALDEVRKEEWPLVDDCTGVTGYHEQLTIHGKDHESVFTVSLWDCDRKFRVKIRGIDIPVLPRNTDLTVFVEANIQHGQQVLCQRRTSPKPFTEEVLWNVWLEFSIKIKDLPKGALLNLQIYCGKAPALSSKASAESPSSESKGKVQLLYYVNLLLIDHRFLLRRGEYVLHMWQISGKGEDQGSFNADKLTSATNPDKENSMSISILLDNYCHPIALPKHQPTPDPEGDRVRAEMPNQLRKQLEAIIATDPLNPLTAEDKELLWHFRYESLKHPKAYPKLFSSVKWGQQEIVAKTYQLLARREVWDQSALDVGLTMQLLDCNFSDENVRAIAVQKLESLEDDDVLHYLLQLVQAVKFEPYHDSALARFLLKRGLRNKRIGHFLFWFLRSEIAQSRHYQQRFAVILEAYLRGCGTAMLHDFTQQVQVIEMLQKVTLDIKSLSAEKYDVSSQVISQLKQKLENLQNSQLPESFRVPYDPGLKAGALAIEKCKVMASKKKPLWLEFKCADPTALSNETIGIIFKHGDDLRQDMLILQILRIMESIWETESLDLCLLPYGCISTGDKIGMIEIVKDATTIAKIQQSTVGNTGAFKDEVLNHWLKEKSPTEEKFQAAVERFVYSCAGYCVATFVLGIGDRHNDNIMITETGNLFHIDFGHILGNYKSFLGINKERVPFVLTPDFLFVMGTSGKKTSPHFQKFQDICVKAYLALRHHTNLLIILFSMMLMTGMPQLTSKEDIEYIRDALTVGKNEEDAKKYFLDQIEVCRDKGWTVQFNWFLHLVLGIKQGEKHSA
methodSummary: PI3K isoform ELISA kit, PI3Kγ
observationType: pIC50
Please report pIC50 as the negative decimal logarithm of the molar concentration, giving only the number.

I am curious: what pIC50 value has been reported for CC(=NNC(=O)COc1ccc2c(C)c(Cc3ccccc3)c(=O)oc2c1C)c1ccc(Br)cc1 ?
5.30

====

testedOn: UniProt:O00329
Sequence (O00329 whole entry, one chain of several, canonical isoform): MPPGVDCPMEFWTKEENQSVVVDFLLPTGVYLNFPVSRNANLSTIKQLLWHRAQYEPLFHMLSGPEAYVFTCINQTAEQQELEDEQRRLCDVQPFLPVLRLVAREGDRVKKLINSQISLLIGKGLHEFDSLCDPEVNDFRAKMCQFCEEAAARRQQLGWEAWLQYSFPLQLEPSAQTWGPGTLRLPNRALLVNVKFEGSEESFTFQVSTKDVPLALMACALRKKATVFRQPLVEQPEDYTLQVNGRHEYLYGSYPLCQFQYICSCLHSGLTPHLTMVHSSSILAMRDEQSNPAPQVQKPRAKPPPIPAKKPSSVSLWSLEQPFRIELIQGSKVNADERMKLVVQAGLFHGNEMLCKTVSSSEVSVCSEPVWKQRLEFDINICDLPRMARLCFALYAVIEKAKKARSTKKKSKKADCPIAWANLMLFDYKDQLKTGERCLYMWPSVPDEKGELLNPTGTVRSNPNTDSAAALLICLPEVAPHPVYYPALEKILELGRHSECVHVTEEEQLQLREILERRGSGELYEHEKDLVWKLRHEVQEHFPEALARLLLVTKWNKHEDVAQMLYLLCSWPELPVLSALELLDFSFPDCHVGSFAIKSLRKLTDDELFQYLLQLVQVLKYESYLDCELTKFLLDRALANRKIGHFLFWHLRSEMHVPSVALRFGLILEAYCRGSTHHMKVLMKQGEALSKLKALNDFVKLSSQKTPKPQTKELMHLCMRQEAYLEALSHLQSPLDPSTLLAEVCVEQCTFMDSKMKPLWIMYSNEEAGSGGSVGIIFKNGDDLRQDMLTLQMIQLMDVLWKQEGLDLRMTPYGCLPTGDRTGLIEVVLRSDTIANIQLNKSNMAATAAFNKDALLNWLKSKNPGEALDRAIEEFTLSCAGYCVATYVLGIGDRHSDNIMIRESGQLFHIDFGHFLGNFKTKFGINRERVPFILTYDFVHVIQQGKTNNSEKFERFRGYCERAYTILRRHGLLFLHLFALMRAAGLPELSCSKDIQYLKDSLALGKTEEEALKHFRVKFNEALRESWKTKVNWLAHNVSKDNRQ
methodSummary: PI3K isoform ELISA kit, PI3Kδ
Each item that follows carries a reported pIC50.
Please report pIC50 as the negative decimal logarithm of the molar concentration, giving only the number.

>>> measurement("CC(=NNC(=O)COc1ccc2c(C)c(Cc3ccccc3)c(=O)oc2c1C)c1ccc(Br)cc1")
5.26

Turning now to a further record.
I am curious: what pIC50 value has been reported for O=c1cc(N2CCOCC2)oc2c(-c3ccccc3)cccc12 [LY294002, reference compound] ?
5.13

====

methodSummary: MTT cytotoxicity, normal prostate epithelial cells
Format: cell-based
testConditions: human, HPrEC normal primary prostate epithelial cells
observationType: pIC50
Please report pIC50 as the negative decimal logarithm of the molar concentration, giving only the number.

>>> measurement("CC(=NNC(=O)COc1ccc2c(C)c(Cc3ccccc3)c(=O)oc2c1C)c1ccc(Br)cc1 [Compound 5]")
4.02

Turning now to a further record.
I am curious: what pIC50 value has been reported for C#Cc1cccc(Nc2ncnc3cc(OCCOC)c(OCCOC)cc23)c1 [Erlotinib, erlotinib, reference compound] ?
4.20

====

Each item that follows carries a reported IC50.
testedOn: PI3Kβ (p110β/p85α) (Homo sapiens, UniProt P42338)
Sequence (P42338 whole entry): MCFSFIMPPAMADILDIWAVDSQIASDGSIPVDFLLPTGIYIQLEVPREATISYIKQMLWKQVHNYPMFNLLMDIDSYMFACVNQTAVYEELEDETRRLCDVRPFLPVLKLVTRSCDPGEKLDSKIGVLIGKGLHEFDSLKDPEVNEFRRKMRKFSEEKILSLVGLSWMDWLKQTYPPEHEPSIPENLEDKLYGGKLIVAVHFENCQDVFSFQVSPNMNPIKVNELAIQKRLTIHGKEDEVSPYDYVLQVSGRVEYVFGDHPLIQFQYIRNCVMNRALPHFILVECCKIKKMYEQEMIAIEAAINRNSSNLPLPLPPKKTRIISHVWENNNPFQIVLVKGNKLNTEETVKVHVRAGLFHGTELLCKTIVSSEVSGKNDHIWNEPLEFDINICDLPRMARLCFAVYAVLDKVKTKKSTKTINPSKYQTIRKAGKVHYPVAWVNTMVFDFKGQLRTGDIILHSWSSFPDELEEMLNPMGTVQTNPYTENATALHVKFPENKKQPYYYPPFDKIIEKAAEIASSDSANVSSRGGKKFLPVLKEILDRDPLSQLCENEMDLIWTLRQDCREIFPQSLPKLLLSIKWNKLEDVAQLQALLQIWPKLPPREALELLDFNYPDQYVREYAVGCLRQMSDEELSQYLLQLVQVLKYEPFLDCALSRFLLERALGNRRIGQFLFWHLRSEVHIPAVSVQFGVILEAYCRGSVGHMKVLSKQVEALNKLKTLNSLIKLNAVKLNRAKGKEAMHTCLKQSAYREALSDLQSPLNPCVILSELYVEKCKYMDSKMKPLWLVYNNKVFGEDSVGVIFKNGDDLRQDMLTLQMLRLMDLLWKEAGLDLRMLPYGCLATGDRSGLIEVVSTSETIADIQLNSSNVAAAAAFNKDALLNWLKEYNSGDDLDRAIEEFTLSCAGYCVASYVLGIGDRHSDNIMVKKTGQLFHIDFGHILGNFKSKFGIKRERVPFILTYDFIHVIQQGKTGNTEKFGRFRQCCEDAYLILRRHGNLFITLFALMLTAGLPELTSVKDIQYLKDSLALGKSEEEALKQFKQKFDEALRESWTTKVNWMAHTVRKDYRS
Sequence (P27986 whole entry partner): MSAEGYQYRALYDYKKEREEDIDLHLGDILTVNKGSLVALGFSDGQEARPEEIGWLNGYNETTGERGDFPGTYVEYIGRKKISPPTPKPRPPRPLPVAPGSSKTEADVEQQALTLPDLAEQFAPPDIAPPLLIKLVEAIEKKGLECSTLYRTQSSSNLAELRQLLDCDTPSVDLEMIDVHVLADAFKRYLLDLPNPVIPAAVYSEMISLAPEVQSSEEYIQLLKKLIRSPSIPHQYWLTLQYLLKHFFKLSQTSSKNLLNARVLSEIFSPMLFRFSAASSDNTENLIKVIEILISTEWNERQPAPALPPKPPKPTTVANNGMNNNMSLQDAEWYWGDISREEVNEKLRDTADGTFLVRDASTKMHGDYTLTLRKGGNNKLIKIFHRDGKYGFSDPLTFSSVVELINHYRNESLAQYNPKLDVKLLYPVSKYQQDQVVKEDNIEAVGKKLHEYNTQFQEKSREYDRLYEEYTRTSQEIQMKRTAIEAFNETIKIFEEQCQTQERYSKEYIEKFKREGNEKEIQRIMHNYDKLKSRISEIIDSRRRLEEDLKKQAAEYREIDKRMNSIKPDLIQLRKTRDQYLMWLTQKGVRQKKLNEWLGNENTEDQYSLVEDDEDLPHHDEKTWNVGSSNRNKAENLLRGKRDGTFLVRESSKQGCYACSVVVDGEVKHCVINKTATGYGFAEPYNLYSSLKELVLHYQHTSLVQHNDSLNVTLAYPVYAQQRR
methodSummary: PI3Kβ Assay Kit
The reply should contain only the number, in nM.

>>> measurement("Cc1c(Cc2ccccc2)c(=O)oc2c(C)c(OCC(=O)NN=Cc3ccc([N+](=O)[O-])cc3)ccc12")
992

Notebook entry, PI3Kβ (p110β/p85α) (Homo sapiens, UniProt P42338) assay: IC50 of CCc1c(C)c2ccc(OCC(=O)NN=Cc3ccc([N+](=O)[O-])cc3)cc2oc1=O = ?
792

Notebook entry, PI3Kβ (p110β/p85α) (Homo sapiens, UniProt P42338) assay: IC50 of CC(=NNC(=O)COc1ccc2c(C)c(Cc3ccccc3)c(=O)oc2c1C)c1ccc(Br)cc1 = ?
261
